Assay: StAR promoter reporter inhibitors, counter-screen for LRH-1 inverse agonist project, cell-based, luminescence, high throughput (AID 651611)
Settings: StAR promoter luciferase reporter counterscreen, at 3.6 µM
Activity calls are given as the source filed them. Rule as the data show it: active = inhibition above about 28%; inactive = the rest.
Respond using exactly one of the listed classes: active, inactive

CCCCSc1nc(SCC(=O)NCc2ccco2)c2c3c(sc2n1)COC(C)(CC)C3 (configuration not stated) :: inactive
Cc1ccc2cccc(OCC(=O)NCCC3=CCCCC3)c2n1 :: inactive
COc1ccc(NC(=O)CSc2nc(N)c(-c3ccccc3)c(=O)[nH]2)cc1 :: inactive
CCc1cc(=O)oc2cc3occ(-c4ccc(OC)c(F)c4)c3cc12 :: inactive
COc1ccc(CCNC(=O)CSc2nn3c(=O)c(C)nnc3s2)cc1OC :: inactive
COc1ccc(N2CCN(C(=O)CSc3nc4ccccc4c(=O)[nH]3)CC2)cc1 :: inactive
COc1cc(N=Cc2c(O)[nH]c3ccccc23)cc(OC)c1OC :: active
O=C(COC(=O)c1ccccc1O)Nc1ccc(N2CCOCC2)cc1 :: inactive
O=C(Cn1ccc(=O)[nH]c1=O)c1ccc([N+](=O)[O-])o1 :: inactive
CCN(CC)CCn1nc2c3c(cccc3c1=O)-c1ccccc1-2 :: active

Test call, this molecule: `COc1cccc(/C=N/Nc2nc(Nc3ccccc3)nc(-n3nc(C)cc3C)n2)c1O` active

Also `Cc1cccc2cc(C#N)c(SCC(=O)N3CC(=O)Nc4ccccc43)nc12` ? active

Also `CCCCCCCCCC[n+]1cccc2c3ccccc3ccc21` ? active

Also `CCn1cc(CN(C)S(=O)(=O)c2ccc3ccccc3c2)c(C)n1` ? inactive

Also `CCOc1cc(/C=C2\CN(CC)C/C(=C\c3ccc(O)c(OCC)c3)C2=O)ccc1O` ? active

Also `O=C(N/N=C/c1ccc[nH]1)c1ccc(COc2cccc3cccnc23)cc1` ? active

Also O=C(Nc1ccc2c(c1)OCCO2)C(c1cc2ccccc2o1)N1CCN(c2ccc(C(F)(F)F)cn2)CC1 (configuration not stated) ? inactive

Also `CC(=O)N1CCc2c(sc(NC(=O)CCS(=O)(=O)c3ccccc3)c2C#N)C1` ? inactive

Also `Cc1c(Cl)cccc1NC(=O)CNc1ccccc1F` ? inactive

Also `COc1cc(-c2cnc3c(NC=O)cc(-c4cccc(NC(C)=O)c4)cn23)cc(OC)c1OC` ? active

Also `CCOc1ccc(NC(=O)CSc2nncc(=O)n2N)cc1` ? inactive

Also `CC(=NNC(=S)N1CC2CCC(CC2)C1)c1ccccn1` ? active

###

Target: Steroidogenic factor 1 (Homo sapiens) (UniProt Q13285)
Sequence (Q13285 whole entry, looked up): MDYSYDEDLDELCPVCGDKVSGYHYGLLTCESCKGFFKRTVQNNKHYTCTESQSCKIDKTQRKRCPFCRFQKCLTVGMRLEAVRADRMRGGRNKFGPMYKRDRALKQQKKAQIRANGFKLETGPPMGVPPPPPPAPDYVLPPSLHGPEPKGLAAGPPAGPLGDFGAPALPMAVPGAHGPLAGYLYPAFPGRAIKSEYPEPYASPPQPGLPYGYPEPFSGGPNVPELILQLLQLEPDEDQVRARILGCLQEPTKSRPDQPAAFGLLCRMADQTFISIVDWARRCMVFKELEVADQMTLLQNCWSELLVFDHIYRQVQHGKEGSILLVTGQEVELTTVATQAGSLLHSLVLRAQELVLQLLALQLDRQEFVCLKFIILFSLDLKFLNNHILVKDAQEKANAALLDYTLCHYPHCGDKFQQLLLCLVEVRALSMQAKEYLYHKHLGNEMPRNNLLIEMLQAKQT
Experiment: SF1 (NR5A1) inverse agonists, counter-screen for LRH-1 inverse agonist project, cell-based, luminescence, high throughput (AID 651614);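 also: cells cotransfected with StAR promoter reporter and SF1 expression vector; 0% = vehicle on cells with receptor and 100% = vehicle on cells lacking receptor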
Conditions: cell-based SF1 luciferase reporter, at 3.6 µM, hits give high values
Tag: Met if measured inhibition is not below 70%, Not met if it is.

See these solved cases before continuing.
COc1ccc(-c2oc3ccc(N4CCOCC4)cc3c2C#CCO)cc1 :: Not met
N#CC(c1cccc(Cl)c1)c1ccc2c(C(F)(F)F)cc(C(F)(F)F)nc2n1 (configuration not stated) :: Met
O=C(N/N=C/c1ccc([N+](=O)[O-])o1)c1ccc2c(c1)OCO2 :: Met
COc1ccc(CCC(=O)Nc2c(-c3ccc(N(C)C)cc3)[nH][nH]c2=O)cc1 :: Not met
CC(=O)N(/N=C/c1ccc([N+](=O)[O-])o1)c1nc2ccccc2c(=O)n1-c1ccccc1 :: Not met

Identify whether the reported inhibition of the following compound is 70% or greater: `Cc1cc(OCC(=O)Nc2nccs2)c2c(C)c(C)c(=O)oc2c1` Not met

Also `CC(=O)Nc1ccc(NC(=O)CSc2nc3nc(-c4cccs4)cc(C(F)(F)F)c3c(=O)[nH]2)cc1` ? Not met

Also `COc1ccc(NC(=O)CSc2sc3c(O)cc(=O)[nH]c3c2C#N)c(OC)c1` ? Not met

Also `Cc1cc(C)c(S(=O)(=O)/N=C2/C=C(Sc3ncn[nH]3)C(=O)c3ccccc32)cc1C` ? Met

Also `ClCc1ncc(-c2ccc(Cl)cc2)o1` ? Not met

Also `CCCc1nnc(SCC(=O)Nc2ccc(C(=O)OCC)cc2)o1` ? Not met

Also `O=C(NCCc1ccccc1F)c1ccc2c(c1)OCCO2` ? Met

Also `Nc1nc2ccccc2cc1C(=O)NCc1ccc(-c2ccccc2)cc1` ? Not met

Also `CCOc1ccc(CCNC(=O)COC(=O)c2cccnc2OCC)cc1OCC` ? Not met

Also `COc1cc(C(=O)OCC(=O)Nc2ccc(N3CCOCC3)cc2)ccc1OCC(C)C` ? Not met

Also CC(=O)NC(c1cccc([N+](=O)[O-])c1)c1ccc2cccnc2c1O (configuration not stated) ? Met

Also `O=C(c1ccccc1)c1ccc2nc(N3CCN(C(=O)c4ccco4)CC3)c3nncn3c2c1` ? Not met

Also `O=C1c2cc(F)ccc2-n2c1nc1ccccc1c2=O` ? Met

Also `CCCc1cc(=O)oc2cc(OCC(=O)NCc3ccccn3)ccc12` ? Not met

Also `CCc1c(O)nc(SCC(=O)Nc2ccccc2C)n(-c2ccc(C)cc2)c1=O` ? Not met

Also `CC(=O)N1CCN(c2ccc(NCc3ccc(C)cc3)cc2)CC1` ? Not met

###

Target: Nuclear receptor subfamily 5 group A member 2 (Homo sapiens)
Assay: LRH-1 (NR5A2) inverse agonists, retest, confirmation, cell-based, luminescence (AID 651613);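 also: HEK293T cells co-transfected with LRH-1 and StAR promoter luciferase reporter; 0% = vehicle wells and 100% = parental cells lacking receptor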
Settings: cell-based LRH-1 luciferase reporter, inverse agonism; at 3.6 µM
Calls of active or inactive are those of the source. Cut-off read from the data, not from the text of the source: active = inhibition above about 42%; inactive = the rest.
Respond using exactly one of the listed classes: YES = active, NO = inactive

CC(C)CNC(=O)COC(=O)c1c2c(nc3ccccc13)/C(=C/c1cccs1)CC2 :: NO
C=C1C(=O)C2=CC1CCC(=O)C1(C)CCC(OC(C)=O)C(C)(C)C1CC2O (stereo not given) :: NO
CCN(CC)C1Oc2cc3c(cc2C(c2cc(OC)c(OC)c(OC)c2)C1C)OCO3 (stereo not given) :: NO
Cc1c(C)c2ccc(OCC(=O)N3CCN(C(=O)C4COc5ccccc5O4)CC3)cc2oc1=O (stereo not given) :: YES
CC12CCC(=O)N1c1c(sc3nc(N4CCOCC4)c4c(c13)CCCC4)C(=O)N2 (stereo not given) :: YES

Test call, this compound: `COc1ccc(CCNC(=O)CSc2nc(O)c(CCC(C)C)c(=O)[nH]2)cc1OC` YES

Also `CC(=O)NC12CC3CC(C1)CC(C(=O)Nc1nc4ccc(S(C)(=O)=O)cc4s1)(C3)C2` ? YES

Also `CC1(C)CC(N2CCN(c3ccccc3)CC2)=CC(=[N+]2CCCC2)C1` ? YES

Also `COc1ccc2nc(N3CCC(O)CC3)c(C#N)cc2c1` ? YES

Also `Cn1nnnc1Sc1ncnc2scc(-c3ccc(-c4ccccc4)cc3)c12` ? NO

###

Biological target: COUP transcription factor 2 (Homo sapiens)
Test: NR2F2 transcriptional activity inhibitors, confirmation, cell-based, luciferase reporter, HEK293, triplicate (AID 687008);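 also: 100% = cells given the luciferase reporter alone without the COUP-TF2 vector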
Details: HEK293 NGFI-A luciferase reporter, luminescence; at 8.5 µM; hits give high values
This is one part of the list.
Class membership depends on inhibition alone; the intervals are low bracket (below 20%), middle bracket (20% to below 60%), high bracket (60% or more)

See these solved cases before continuing.
O=C(CCC(=O)N1CCN(S(=O)(=O)c2ccc(Cl)cc2)CC1)NCc1cccc(C(F)(F)F)c1 :: middle bracket
CN(O)C(=S)c1ccccc1 :: low bracket
C[C@@H]1C[C@@H]2O[C@H]2/C=C\C=C\C(=O)Cc2c(Cl)c(O)cc(O)c2C(=O)O1 :: high bracket
CCc1ccc(-c2nc(SCC(=O)NC3CCCC3)n[nH]2)cc1 :: low bracket
CC(C)(C)c1ccc(Oc2ccc(N)cc2)cc1 :: high bracket

Please classify: `CCCc1ccc(-c2csc(NC(=O)Cc3cccs3)n2)cc1` low bracket

Also `CCCCCc1c(-c2ccc(OC)c(OC)c2)ncn1CCc1ccccc1OC` ? middle bracket

Also `C=CCSc1nsc(NC(=O)Nc2cccc(C(C)=O)c2)n1` ? low bracket

Also `CCOC(=O)c1ccc(NC(=O)Cn2cnc3cc(C)c(C)cc32)cc1` ? high bracket

Also `Fc1ccc2[nH]c3c(N4CCSCC4)ncnc3c2c1` ? middle bracket

###

Target: Photoreceptor-specific nuclear receptor (Homo sapiens) (UniProt Q9Y5X4)
Sequence (Q9Y5X4 whole entry, looked up): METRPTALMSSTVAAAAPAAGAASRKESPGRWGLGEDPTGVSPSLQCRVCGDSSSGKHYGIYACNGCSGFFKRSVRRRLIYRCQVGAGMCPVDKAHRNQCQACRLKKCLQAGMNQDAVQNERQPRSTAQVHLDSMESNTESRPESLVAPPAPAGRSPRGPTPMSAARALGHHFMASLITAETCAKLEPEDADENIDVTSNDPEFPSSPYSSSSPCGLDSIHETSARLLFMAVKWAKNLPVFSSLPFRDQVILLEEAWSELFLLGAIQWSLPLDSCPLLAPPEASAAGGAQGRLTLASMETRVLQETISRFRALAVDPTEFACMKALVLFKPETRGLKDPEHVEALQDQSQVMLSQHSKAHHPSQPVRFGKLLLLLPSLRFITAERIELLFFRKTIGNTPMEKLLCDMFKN
Assay: NR2E3 agonist confirmation in cells, cell-based, luminescence, CHO-S two-hybrid (AID 624378);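 also: 0% = DMSO in NR2E3 cells and 100% = DMSO in cells lacking NR2E3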
Details: CHO-S mammalian two-hybrid NR2E3-NCOR, luciferase luminescence; at 3.98 µM; hits give high values
This is one part of the list.
MEASURED_QUANTITY: inhibition (%)
Answers are plain numbers, in %.

Solved entries (count: 6):
Cn1c(Cc2cccc3ccccc23)nnc1SCC(=O)N1CCN(c2cccc(Cl)c2)CC1 :: 78.1
COc1ccc(S(=O)(=O)Nc2ccc3oc(C)c(C(C)=O)c3c2)cc1 :: 93
C#Cc1ccc(NC(=O)C2(C)CCN2C(=O)Cc2ccc(-c3ccccc3)cc2)cc1 (configuration not stated) :: 50.6
COc1cc(N=Cc2c(O)[nH]c3ccccc23)cc(OC)c1OC :: 73.8
Cc1ccc(S(=O)(=O)N2CCN(c3ncnc4ccccc34)CC2)cc1 :: 94.1
COc1ccc(S(=O)(=O)NCCCCOc2ccc(Cl)cc2)cc1 :: 97.5

List inhibition for every entry below, keeping the order given.
1. CN(C)S(=O)(=O)c1ccc(Oc2ccc(S(=O)(=O)N(C)C)cc2)cc1
2. CCOc1cc(/C=C(/C#N)c2ccc(Cl)cc2)cc(Cl)c1OCC(=O)O
3. Cc1nc(-c2ccc(F)cc2)c(CC(=O)Nc2cc(S(=O)(=O)N3CCCCC3)ccc2C)s1

[71.8, 62.7, 56.8]
